# study.system: cAMP-specific 3',5'-cyclic phosphodiesterase 4D [372-376,381-715,S375G,I381V,S383G,G384S,V385H,K386M) (Homo sapiens, UniProt Q08499, S375G/I381V/S383G/G384S/V385H/K386M)
# procedure.text: Phosphodiesterase (PDE) Inhibition Assay
pIC50: −log10 of the molar value.
Catalogue of molecules with associated pIC50
measurement.label: pIC50

molecule=CCOC(=O)c1c(C)nn(-c2ccc(C(C)(C)C)cc2)c1C readout_relation== meas_value=4.85
molecule=CCOC(=O)c1c(C)nn(-c2ccc(OC(F)(F)F)cc2)c1C readout_relation== meas_value=4.68
molecule="CCOC(=O)c1cn[nH]c1N [ethyl 3-amino-1H-pyrazole-4-carboxylate]" readout_relation=< meas_value=3.70
molecule=CCOC(=O)c1c(C)nn(-c2ccc([N+](=O)[O-])cc2)c1C readout_relation== meas_value=6.00
molecule=CCOC(=O)c1c(-c2ccc(OC)cc2)n[nH]c1N readout_relation== meas_value=4.72
molecule=COC(=O)c1c(-c2cc(C)on2)n[nH]c1C readout_relation=< meas_value=3.70
molecule="CCOC(=O)c1cn[nH]c1C [ethyl 3-methyl-1H-pyrazole-4-carboxylate]" readout_relation=< meas_value=3.70
molecule=CCOC(=O)c1c(C)nn(-c2cccc3cccnc23)c1C readout_relation== meas_value=4.72
molecule=Cc1n[nH]c(C)c1C(=O)O readout_relation=< meas_value=3.70
molecule=CCOC(=O)c1c(C)nn(-c2ccc([N+](=O)[O-])cc2[N+](=O)[O-])c1C readout_relation== meas_value=5.34
molecule=CCOC(=O)c1cn(-c2ccccc2)nc1-c1ccc(Cl)cc1 readout_relation== meas_value=6.06
molecule=CCOC(=O)c1c(C)nn(-c2ccccc2Cl)c1C readout_relation== meas_value=7.72
molecule=CCOC(=O)c1cnn(-c2ncnc3sc4c(c23)CCCC4)c1N readout_relation== meas_value=4.30
molecule=CCOC(=O)c1c(C)nn(-c2cc(C(F)(F)F)cc(C(F)(F)F)c2)c1C readout_relation== meas_value=4.01
molecule=CCOC(=O)c1c[nH]nc1C(F)(F)F readout_relation=< meas_value=3.70
molecule=CCOC(=O)c1c(C)nn(-c2ccc(S(N)(=O)=O)cc2)c1C readout_relation== meas_value=5.04

====

# study.system: cAMP-specific 3',5'-cyclic phosphodiesterase 4B [316-320,321-700,S319G,N320S,N321H,T322M] (Homo sapiens, UniProt Q07343, S319G/N320S/N321H/T322M)
# Construct: 316-320,321-700
# procedure.text: Phosphodiesterase (PDE) Inhibition Assay
# condition.context: pH 7.5; 30 °C
pIC50: −log10 of the molar value.
measurement.label: pIC50

compound="CCOC(=O)c1cn[nH]c1C [ethyl 3-methyl-1H-pyrazole-4-carboxylate]" measurement_label=pIC50 readout_relation=< meas_value=3.70
compound="CCOC(=O)c1cn[nH]c1N [ethyl 3-amino-1H-pyrazole-4-carboxylate]" measurement_label=pIC50 readout_relation=< meas_value=3.70
compound=CCOC(=O)c1cnn(-c2ncnc3sc4c(c23)CCCC4)c1N measurement_label=pIC50 readout_relation== meas_value=4.60
compound=CCOC(=O)c1c(C)nn(-c2ccc(OC)cc2)c1C measurement_label=pIC50 readout_relation== meas_value=5.23
compound=CCOC(=O)c1cn(-c2ccccc2)nc1-c1ccc(Cl)cc1 measurement_label=pIC50 readout_relation== meas_value=5.82
